# system: T1, 4H3001-AA
# T1 chain: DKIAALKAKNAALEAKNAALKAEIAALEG
# protocol: two-hybrid library CCmax;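 also: natural log of median RNA to DNA barcode read ratio; higher means stronger binding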
# conditions_used: mean of both orientations
measurement_type: interaction score

Briefly, interaction score measured for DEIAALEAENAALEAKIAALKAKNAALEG [4H175-AA] : -0.307

Briefly, interaction score measured for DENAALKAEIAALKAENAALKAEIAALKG [4H1626-AA] : -2.01

Briefly, interaction score measured for DKIAALKAENAALEAKIAALKAENAALKG [4H2732-AA] : -1.46

Briefly, interaction score measured for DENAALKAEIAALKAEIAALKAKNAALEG [4H1615-AA] : -1.81

Briefly, interaction score measured for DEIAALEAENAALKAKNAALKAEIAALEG [4H249-AA] : -1.12

Briefly, interaction score measured for DKIAALEAKNAALKAEIAALEAKNAALKG [4H2504-AA] : -1.38

Briefly, interaction score measured for DENAALKAENAALKAEIAALKAEIAALKG [4H1738-AA] : -1.39

Briefly, interaction score measured for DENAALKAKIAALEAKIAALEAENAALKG [4H1828-AA] : -1.55

Briefly, interaction score measured for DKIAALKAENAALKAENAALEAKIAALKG [4H2774-AA] : 0.364

Briefly, interaction score measured for DKIAALKAKIAALKAKNAALEAENAALEG [4H2931-AA] : -1.79

Briefly, interaction score measured for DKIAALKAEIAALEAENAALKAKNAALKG [4H2592-AA] : -1.68

Briefly, interaction score measured for DENAALKAEIAALKAKIAALEAKNAALEG [4H1639-AA] : -2.12

Briefly, interaction score measured for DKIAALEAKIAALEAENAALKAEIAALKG [4H2330-AA] : -1.21

Briefly, interaction score measured for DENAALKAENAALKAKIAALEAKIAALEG [4H1765-AA] : -2.1

Briefly, interaction score measured for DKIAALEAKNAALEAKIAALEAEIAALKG [4H2466-AA] : -1.55

Briefly, interaction score measured for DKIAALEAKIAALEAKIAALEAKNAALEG [4H2343-AA] : -1.8
